tested on: RSV strain A2; test: RSV antiviral cytoprotection assay in Hep2 cells (RSV-induced cytopathic effect, Cell TiterGlo); type: cell-based, Respiratory Syncytial Virus (RSV); conditions: human respiratory syncytial virus, HEp-2, 0.5 μM compound; RSV A2-infected Hep2 cells; % inhibition calculated from 4-parameter dose response curve, normalized to 0% and 100%; read-out: Percent inhibition at 0.5 μM
measured-metric: inhibition at 0.5 µM (%)
Provide the reading as a plain figure in %.

compound | inhibition at 0.5 µM [%]
Cc1cn2nc([C@@H]3CCCCN3C(=O)c3cccc4ccnn34)cc2nc1N1CC[C@H](N)C1 [Compound 54] | 100

// query Given the entry Cc1cn2nc([C@@H]3CCCCN3C(=O)c3ccccc3[S+](C)[O-])cc2nc1N1CC[C@H](N)C1 (stereo partly shown) [Compound 103] , report its measured inhibition at 0.5 µM.
// result 100

// query Next: Cc1cn2nc([C@@H]3CCCCN3C(=O)c3ccc(F)c(F)c3C)cc2nc1N1CC[C@H](N)C1 [Compound 72]
// result 100

// query Next: Cc1cn2nc([C@@H]3CCCCN3C(=O)c3ccc(F)cc3F)cc2nc1N1C[C@@H](C#N)[C@@H](O)C1 [Compound 150]
// result 99

// query Next: Cc1cn2nc([C@@H]3CCCCN3C(=O)c3ccc(-n4cncn4)cc3Cl)cc2nc1N1CC[C@H](N)C1 [Compound 102]
// result 16

// query Next: Cc1cn2nc([C@@H]3CCCCN3C(=O)c3cc(Cl)ccc3NS(C)(=O)=O)cc2nc1N1CCN[C@@H](C)C1 [Compound 7]
// result 100

// query Next: Cc1ccc(Cl)c(C(=O)N2CCCC[C@H]2c2cc3nc(N4CC[C@H](N)C4)c(C)cn3n2)c1 [Compound 89]
// result 100
